Reported INHIBITION values for a set of compounds
system: Plasmodium berghei; assay: Screen against P. berghei liver stage (PbLuc), transformed with Luciferase, at 10uM; assay type: functional, HepG2; conditions: tested at 10 uM
About 8,600 (12%) of roughly 69,000 compounds showed an effect of 50% or more. The full list was thinned out, with strong results kept by preference.
measure: INHIBITION (%)

[
  {
    "compound": "O=C1CCC2(CCCN(C(=O)NCc3ccccc3)CC2)N1 (stereo unspecified)",
    "measured target": "Plasmodium berghei",
    "val": 8.74
  },
  {
    "compound": "O=C1CNc2ncnc(Nc3cnn(Cc4ccc(F)cc4)c3)c2N1",
    "measured target": "Plasmodium berghei",
    "val": 65.8
  },
  {
    "compound": "CCN(c1ccccc1)S(=O)(=O)c1cc(C(=O)O)cc2c1CCC2",
    "measured target": "Plasmodium berghei",
    "val": 56.5
  },
  {
    "compound": "O=C1[C@@H]2CC[C@@H](CN(C3CSCCSC3)C2)N1Cc1cscn1",
    "measured target": "Plasmodium berghei",
    "val": -14.9
  },
  {
    "compound": "CCOC(=O)c1n[nH]cc1-c1cncn1CCn1nc(C)c(C)c1C",
    "measured target": "Plasmodium berghei",
    "val": 12.3
  },
  {
    "compound": "O=C1CNc2ncnc(Nc3cnn(Cc4cccc(F)c4)c3)c2N1",
    "measured target": "Plasmodium berghei",
    "val": -6.47
  },
  {
    "compound": "CN(C)c1ccc(CNCc2ccc(N3CCOCC3)cc2)cn1",
    "measured target": "Plasmodium berghei",
    "val": -0.551
  },
  {
    "compound": "Cc1nc(C)c(CC(=O)N2CCC(c3ccn4nccc4n3)CC2)s1",
    "measured target": "Plasmodium berghei",
    "val": 4.13
  },
  {
    "compound": "O=C(c1ccc(Cl)cc1)N1CCC(N2CCCCC2=O)CC1",
    "measured target": "Plasmodium berghei",
    "val": 27.5
  },
  {
    "compound": "CN1CCC2(CCN(Cc3nccs3)CC2)C1=O",
    "measured target": "Plasmodium berghei",
    "val": 7.15
  },
  {
    "compound": "CC(C)c1ccc2c(c1)C1(CC(=O)Nc3[nH]ncc31)C(=O)N2C (stereo unspecified)",
    "measured target": "Plasmodium berghei",
    "val": 17.7
  }
]

---

system: Plasmodium berghei; test: Screen against P. berghei liver stage (PbLuc), transformed with Luciferase, at 10uM; format: functional, HepG2; conditions: tested at 10 uM
Out of some 69,000 compounds screened, about 8,600 (12%) showed an effect of 50% or more. The sample as a whole holds a higher share of strong results than the screen did.
measure: INHIBITION (%)

[
  {
    "compound": "CCSc1cncc(N2CCC(C(=O)NC(C)C(C)C)CC2)n1 (configuration not stated)",
    "val": -26.2
  },
  {
    "compound": "Cc1nc(Nc2nccs2)cc(C2CCCN2C2CCOCC2)n1 (configuration not stated)",
    "val": 52.3
  },
  {
    "compound": "Cc1nc(Nc2ccccn2)cc(C2CCCN2C2CCOCC2)n1 (configuration not stated)",
    "val": 20.8
  },
  {
    "compound": "Cc1oc(-c2nc(C#N)c(NC(C)(C)C)o2)cc1S(=O)(=O)N1CCCC1",
    "val": 40.1
  },
  {
    "compound": "Cc1nc(Nc2nnc(C)s2)cc(C2CCCN2S(C)(=O)=O)n1 (configuration not stated)",
    "val": 6.32
  },
  {
    "compound": "O=C(NCC1CCC1)c1ccnc(-n2ccnc2)c1",
    "val": -13.6
  },
  {
    "compound": "Cc1nc(Nc2ncccn2)cc(C2CCCN2C2CCOCC2)n1 (configuration not stated)",
    "val": 15.4
  },
  {
    "compound": "Cc1nc(NC2CCOCC2)cc(C2CCN2S(C)(=O)=O)n1 (configuration not stated)",
    "val": 30.6
  },
  {
    "compound": "Cc1nc(Nc2nccs2)cc(C2CCCN2)n1 (configuration not stated)",
    "val": 5.05
  },
  {
    "compound": "CC(=O)NCc1cc(-c2cccs2)n(C2CCCC2)n1",
    "val": 1.74
  },
  {
    "compound": "Cc1nc(Nc2ncc(C)s2)cc(C2CCCN2S(C)(=O)=O)n1 (configuration not stated)",
    "val": 50.8
  },
  {
    "compound": "O=C(O)CCNC(=O)Cc1csc(-c2cccc(Cl)c2)n1",
    "val": 25.1
  }
]

---

test system: Plasmodium berghei; experiment: Screen against P. berghei liver stage (PbLuc), transformed with Luciferase, at 10uM; type: functional, HepG2; conditions: tested at 10 uM
The whole screen tested about 69,000 compounds, of which about 8,600 (12%) showed an effect of 50% or more. The full list was thinned out, with strong results kept by preference.
Parameter: INHIBITION. Scope: all listed entries.

[
  {
    "compound": "CNc1cc(C2CCN2c2ncccn2)nc(C)n1 (stereo not given)",
    "INHIBITION / %": 15.5
  },
  {
    "compound": "O=C(c1ccc2nncn2c1)N1CCCC(n2ccnc2)C1 (stereo not given)",
    "INHIBITION / %": 16.9
  },
  {
    "compound": "CC(=O)N1CCC(Cc2cccc(-c3c(C)noc3C)n2)C1 (stereo not given)",
    "INHIBITION / %": 8.53
  },
  {
    "compound": "CCn1cc2c(n1)C(COCC1CC1)CN(c1ccc(C)nn1)C2 (stereo not given)",
    "INHIBITION / %": 41
  },
  {
    "compound": "CCOCC1CN(c2ccc(C)nn2)Cc2nn(CC)cc21 (stereo not given)",
    "INHIBITION / %": 63.5
  },
  {
    "compound": "Cc1cccc(Cn2c(=O)[nH]c3csnc3c2=O)c1",
    "INHIBITION / %": 12.8
  },
  {
    "compound": "CC1C(=O)NCCN1CCOc1ccc(C#N)cc1 (stereo not given)",
    "INHIBITION / %": -17.2
  },
  {
    "compound": "Cc1cccc(NC(=O)c2ccc(OCc3nnnn3C)cc2)n1",
    "INHIBITION / %": -83.3
  },
  {
    "compound": "CCc1cccc(OCCCN(C)C(=O)CN2CCNC2=O)c1",
    "INHIBITION / %": 17
  },
  {
    "compound": "CS(=O)(=O)N1Cc2cnn(CC3CC3)c2C(COCC2CC2)C1 (stereo not given)",
    "INHIBITION / %": 53.4
  },
  {
    "compound": "COc1ccc(CNC(=O)NC2CCN(C)CC2)c(C(F)(F)F)c1",
    "INHIBITION / %": 33.8
  },
  {
    "compound": "Cc1cc(NC(C)c2csc(C)n2)n2nc(C)c(C)c2n1 (stereo not given)",
    "INHIBITION / %": 25.4
  },
  {
    "compound": "CNCc1n[nH]c(=O)n1-c1cccc(Cl)c1Cl",
    "INHIBITION / %": 25.1
  },
  {
    "compound": "CC(CO)(NC(=O)NCc1ccc(Br)s1)C1CC1 (stereo not given)",
    "INHIBITION / %": -12.7
  },
  {
    "compound": "Cc1ccc(C2(O)CCN(C(=O)CCn3ccc(=O)[nH]c3=O)CC2)nc1",
    "INHIBITION / %": 82
  },
  {
    "compound": "CC1COCCN1C(=O)COc1ccc(Oc2ccccn2)cc1 (stereo not given)",
    "INHIBITION / %": 8.99
  },
  {
    "compound": "Cc1csc(CCNC(=O)N2CCC(n3cccc3)CC2)n1",
    "INHIBITION / %": -6.04
  },
  {
    "compound": "CCOCC1CN(S(=O)(=O)CC)Cc2cnn(CC3CC3)c21 (stereo not given)",
    "INHIBITION / %": 31.7
  },
  {
    "compound": "Cc1nc(C)n(CC(=O)N2CCCC(c3nc(C)n4c(C)csc34)C2)n1 (stereo not given)",
    "INHIBITION / %": 8.12
  },
  {
    "compound": "Cn1ncc2c1C(COCC1CC1)CN(S(C)(=O)=O)C2 (stereo not given)",
    "INHIBITION / %": 33.4
  },
  {
    "compound": "CC1CN(C)CCN1C(=O)COc1cccc(Oc2ccccn2)c1 (stereo not given)",
    "INHIBITION / %": 61.2
  },
  {
    "compound": "Cc1cccc(CN2CCC3(CCCN(C(=O)NC4CC4)C3)C2=O)n1 (stereo not given)",
    "INHIBITION / %": 0
  },
  {
    "compound": "CCc1noc(CN(CC)C(=O)CC2C(=O)NCCN2CC(C)(C)C)n1 (stereo not given)",
    "INHIBITION / %": 13.7
  },
  {
    "compound": "Cc1ccnc(NC(=O)c2cccc(OCc3nnnn3C)c2)c1",
    "INHIBITION / %": 39.8
  },
  {
    "compound": "O=C(c1cc2c(s1)CCC2)N1CCN(c2cnccn2)CC1",
    "INHIBITION / %": -8.66
  }
]
